Every entry's value here was drawn from ChEMBL document CHEMBL1153764.

# System: Escherichia coli
# Assay notes: Antibacterial activity against Escherichia coli MTCC 41 after 12 to 16 hrs
# Format: functional
Experimental readout: MIC (µg/mL)

[
  {
    "Molecule": "CCOC(=O)C1=C(C)OC(N)=C(C#N)C1c1cccc([N+](=O)[O-])c1 (stereo not given)",
    "Unit abbreviation": "µg/mL",
    "Qualifier sign": ">",
    "Numeric value": 128
  },
  {
    "Molecule": "CCOC(=O)C1=C(C)OC(N)=C(C#N)C1c1ccccc1 (stereo not given)",
    "Unit abbreviation": "µg/mL",
    "Qualifier sign": "=",
    "Numeric value": 64
  },
  {
    "Molecule": "CCOC(=O)C1=C(C)OC(N)=C(C#N)C1c1ccc(OC)cc1 (stereo not given)",
    "Unit abbreviation": "µg/mL",
    "Qualifier sign": "=",
    "Numeric value": 128
  },
  {
    "Molecule": "Cc1ccc(C2C(C#N)=C(N)OC3=C2C(=O)CC(C)(C)C3)cc1 (stereo not given)",
    "Unit abbreviation": "µg/mL",
    "Qualifier sign": ">",
    "Numeric value": 128
  },
  {
    "Molecule": "CC1(C)CC(=O)C2=C(C1)OC(N)=C(C#N)C2c1ccc([N+](=O)[O-])cc1 (stereo not given)",
    "Unit abbreviation": "µg/mL",
    "Qualifier sign": "=",
    "Numeric value": 64
  },
  {
    "Molecule": "CCOC(=O)C1=C(C)OC(N)=C(C#N)C1c1ccc([N+](=O)[O-])cc1 (stereo not given)",
    "Unit abbreviation": "µg/mL",
    "Qualifier sign": ">",
    "Numeric value": 128
  },
  {
    "Molecule": "CCOC(=O)C1=C(C)OC(N)=C(C#N)C1c1ccc(C)cc1 (stereo not given)",
    "Unit abbreviation": "µg/mL",
    "Qualifier sign": ">",
    "Numeric value": 128
  },
  {
    "Molecule": "CCOC(=O)C1=C(C)OC(N)=C(C#N)C1c1cccc(O)c1 (stereo not given)",
    "Unit abbreviation": "µg/mL",
    "Qualifier sign": ">",
    "Numeric value": 128
  },
  {
    "Molecule": "CC1(C)CC(=O)C2=C(C1)OC(N)=C(C#N)C2c1cccc(O)c1 (stereo not given)",
    "Unit abbreviation": "µg/mL",
    "Qualifier sign": "=",
    "Numeric value": 128
  },
  {
    "Molecule": "CCOC(=O)C1=C(C)OC(N)=C(C#N)C1c1cccc(Cl)c1 (stereo not given)",
    "Unit abbreviation": "µg/mL",
    "Qualifier sign": "=",
    "Numeric value": 128
  }
]
